- Tested on: ESKAPE strains
- assayExplanation: MIC-assays on a panel of representative ESKAPE strains, summary in words
- Type: cell-based
- conditionParameters: summary of the MIC tables
measureName: antibacterial activity on the pathogen panel, in words

1. C#CC[C@H](NC(=O)c1ccc(NC(=O)c2ccc(C#N)cc2)cc1)C(=O)Nc1ccc(C(=O)Nc2ccc(CNc3ccc(C(=O)O)cc3)c(O)c2OC(C)C)cc1 ... inactive
2. C#CC[C@H](NC(=O)c1ccc(NC(=O)c2ccc(C#N)cc2)cc1)C(=O)Nc1ccc(C(=O)Nc2ccc(-c3ccc(C(=O)O)cc3)c(O)c2OC(C)C)cc1 ... inactive
3. C#CC[C@H](NC(=O)c1ccc(NC(=O)c2ccc(C#N)cc2)cc1)C(=O)Nc1ccc(C(=O)Nc2ccc(-c3cn(-c4ccc(C(=O)O)cc4)nn3)c(O)c2OC(C)C)cc1 ... inactive

----------
- System: A. baum. CIP-105742
- assayExplanation: MIC assay
- Format: cell-based
- conditionParameters: Acinetobacter baumannii, CIP105742; read-out: MIC A. baum. CIP-105742
Measured MIC values are reported for all entries that follow.
measureName: MIC

1. C#CC[C@H](NC(=O)c1ccc(NC(=O)c2ccc(C#N)cc2)cc1)C(=O)Nc1ccc(C(=O)Nc2ccc(C(=O)Nc3ccc(C(=O)O)cc3)c(O)c2CC(C)C)cc1 [Cmpd. 11] ... < 0.03 µg/mL
2. C#CC[C@H](NC(=O)c1ccc(NC(=O)c2ccc(C#N)cc2)cc1)C(=O)Nc1ccc(C(=O)Nc2ccc(-c3ccc(C(=O)O)cc3)c(O)c2OC(C)C)cc1 [Cmpd. 44] ... > 64 µg/mL
3. C#CC[C@H](NC(=O)c1ccc(NC(=O)c2ccc(C#N)cc2)cc1)C(=O)Nc1ccc(C(=O)Nc2ccc(-c3nc4ccc(C(=O)O)cc4[nH]3)c(O)c2OC(C)C)cc1 [Cmpd. 48] ... > 8 µg/mL
4. C#CC[C@H](NC(=O)c1ccc(NC(=O)c2ccc(C#N)cc2)cc1)C(=O)Nc1ccc(C(=O)Nc2ccc(CNc3ccc(C(=O)O)cc3)c(O)c2OC(C)C)cc1 [Cmpd. 41] ... > 8 µg/mL
5. C#CC[C@H](NC(=O)c1ccc(NC(=O)c2ccc(C#N)cc2)cc1)C(=O)Nc1ccc(C(=O)Nc2ccc(C(=O)Nc3ccc(C(=O)O)cc3)c(F)c2OC(C)C)cc1 [Cmpd. 4] ... 0.25 to 0.5 µg/mL
6. CO[C@@H](C(N)=O)[C@H](NC(=O)c1ccc(NC(=O)c2ccc(C#N)cc2)cc1)C(=O)Nc1ccc(C(=O)Nc2ccc(C(=O)Nc3ccc(C(=O)O)cc3)c(O)c2OC(C)C)cc1 [CN861 1, reference compound] ... 0.25 µg/mL
7. C#CC[C@H](NC(=O)c1ccc(NC(=O)c2ccc(C#N)cc2)cc1)C(=O)Nc1ccc(C(=O)Nc2ccc(-c3ncc4cc(C(=O)O)ccc4n3)c(O)c2OC(C)C)cc1 [Cmpd. 47] ... > 64 µg/mL
8. C#CC[C@H](NC(=O)c1ccc(NC(=O)c2ccc(C#N)cc2)cc1)C(=O)Nc1ccc(C(=O)Nc2ccc3c(=O)n(-c4ccc(C(=O)O)cc4)c(C)nc3c2OC(C)C)cc1 [Cmpd. 45a] ... 4 µg/mL
9. C#CCC(NC(=O)c1ccc(NC(=O)c2ccc(C#N)cc2)cc1)C(=O)Nc1ccc(C(=O)Nc2ccc(C(=O)Nc3ccc(C(=O)O)cc3)c(O)c2OC(C)C)cc1 (stereo not drawn) [CN-CC-861 2, reference compound] ... 0.02 µg/mL
10. C#CC[C@H](NC(=O)c1ccc(NC(=O)c2ccc(C#N)cc2)cc1)C(=O)Nc1ccc(C(=O)Nc2ccc(-c3cn(-c4ccc(C(=O)O)cc4)nn3)c(O)c2OC(C)C)cc1 [Cmpd. 43] ... > 8 µg/mL
11. CO[C@@H](C(N)=O)[C@H](NC(=O)c1ccc(NC(=O)c2ccc(C#N)cc2)cc1)C(=O)Nc1ccc(C(=O)Nc2ccc(C(=O)Nc3ccc(C(=O)O)cc3)c(C(F)F)c2OC(C)C)cc1 [Cmpd. 9] ... > 8 µg/mL
12. C#CC[C@H](NC(=O)c1ccc(NC(=O)c2ccc(C#N)cc2)cc1)C(=O)Nc1ccc(C(=O)Nc2cc(O)c(C(=O)Nc3ccc(C(=O)O)cc3)cc2OC(C)C)cc1 [Cmpd. 3] ... 2 µg/mL

----------
- assayExplanation: PK study in mice after intravenous administration
- Assay type: in vivo, CD-1 mice
- conditionParameters: male, mouse; plasma, CD-1 mice, 1 mg/kg IV
measureName: half-life (min)

1) C#CC[C@H](NC(=O)c1ccc(NC(=O)c2ccc(C#N)cc2)cc1)C(=O)Nc1ccc(NC(=O)c2ccc(C(=O)Nc3ccc(C(=O)O)cc3)c(O)c2OC(C)C)cc1 ... 52.8

----------
- System: S. pneum. DSM-11865 (PRSP)
- assayExplanation: MIC assay
- Type: cell-based
- conditionParameters: Streptococcus pneumoniae; read-out: MIC S. pneum. DSM-11865 (PRSP)
measureName: MIC

1. C#CC[C@H](NC(=O)c1ccc(NC(=O)c2ccc(C#N)cc2)cc1)C(=O)Nc1ccc(C(=O)Nc2ccc(C(=O)Nc3ccc(C(=O)O)cc3)c(F)c2OC(C)C)cc1 ... > 64 µg/mL
2. C#CC[C@H](NC(=O)c1ccc(NC(=O)c2ccc(C#N)cc2)cc1)C(=O)Nc1ccc(C(=O)Nc2ccc(C(=O)Nc3ccc(C(=O)O)cc3)c(N)c2OC(C)C)cc1 ... 0.2 µg/mL
3. C#CC[C@H](NC(=O)c1ccc(NC(=O)c2ccc(C#N)cc2)cc1)C(=O)Nc1ccc(C(=O)Nc2ccc(C(=O)Nc3ccc(C(=O)O)cc3)c(Br)c2OC(C)C)cc1 ... > 64 µg/mL
4. CO[C@@H](C(N)=O)[C@H](NC(=O)c1ccc(NC(=O)c2ccc(C#N)cc2)cc1)C(=O)Nc1ccc(C(=O)Nc2ccc(C(=O)N(C)c3ccc(C(=O)O)cc3)c(O)c2OC(C)C)cc1 ... > 64 µg/mL
5. C#CC[C@H](NC(=O)c1ccc(NC(=O)c2ccc(C#N)cc2)cc1)C(=O)Nc1ccc(C(=O)Nc2ccc(C(=O)Nc3ccc(C(=O)O)cc3)c(O)c2OC)cc1 ... < 0.03 µg/mL
6. C#CC[C@H](NC(=O)c1ccc(NC(=O)c2ccc(C#N)cc2)cc1)C(=O)Nc1ccc(C(=O)Nc2ccc(-c3nc4ccc(C(=O)O)cc4[nH]3)c(O)c2OC(C)C)cc1 ... > 64 µg/mL
7. C#CC[C@H](NC(=O)c1ccc(NC(=O)c2ccc(C#N)cc2)cc1)C(=O)Nc1ccc(C(=O)Nc2ccc(-c3ccc(C(=O)O)cc3)c(O)c2OC(C)C)cc1 ... > 64 µg/mL
8. C#CC[C@H](NC(=O)c1ccc(NC(=O)c2ccc(C#N)cc2)cc1)C(=O)Nc1ccc(C(=O)Nc2ccc(CNc3ccc(C(=O)O)cc3)c(O)c2OC(C)C)cc1 ... > 64 µg/mL
9. C#CC[C@H](NC(=O)c1ccc(NC(=O)c2ccc(C#N)cc2)cc1)C(=O)Nc1ccc(CNc2ccc(C(=O)Nc3ccc(C(=O)O)cc3)c(O)c2OC(C)C)cc1 ... > 64 µg/mL
10. C#CC[C@H](NC(=O)c1ccc(NC(=O)c2ccc(C#N)cc2)cc1)C(=O)Nc1ccc(C(=O)Nc2cc(O)c(C(=O)Nc3ccc(C(=O)O)cc3)cc2OC(C)C)cc1 ... > 64 µg/mL
11. C#CC[C@H](NC(=O)c1ccc(NC(=O)c2ccc(C#N)cc2)cc1)C(=O)Nc1ccc(C(=O)Nc2ccc(C(=O)Nc3ccc(C(=O)O)cc3)c(O)c2CC(C)C)cc1 ... > 64 µg/mL
12. C#CC[C@H](NC(=O)c1ccc(NC(=O)c2ccc(C#N)cc2)cc1)C(=O)Nc1ccc(C(=O)Nc2ccc(-c3cn(-c4ccc(C(=O)O)cc4)nn3)c(O)c2OC(C)C)cc1 ... > 64 µg/mL
13. O=C(O)c1cn(C2CC2)c2cc(N3CCNCC3)c(F)cc2c1=O [CIP, ciprofloxacin, reference compound] ... > 6.4 µg/mL
14. C#CCC(NC(=O)c1ccc(NC(=O)c2ccc(C#N)cc2)cc1)C(=O)Nc1ccc(C(=O)Nc2ccc(C(=O)Nc3ccc(C(=O)O)cc3)c(Cl)c2OC(C)C)cc1 (centres unmarked) ... > 64 µg/mL
15. CO[C@@H](C(N)=O)[C@H](NC(=O)c1ccc(NC(=O)c2ccc(C#N)cc2)cc1)C(=O)Nc1ccc(C(=O)Nc2ccc(C(=O)Nc3ccc(C(=O)O)cc3)c(C(F)F)c2OC(C)C)cc1 ... > 64 µg/mL
16. C#CC[C@H](NC(=O)c1ccc(NC(=O)c2ccc(C#N)cc2)cc1)C(=O)Nc1ccc(C(=O)Nc2ccc3c(=O)n(-c4ccc(C(=O)O)cc4)cnc3c2OC(C)C)cc1 [Cmpd. 45b] ... > 64 µg/mL
17. C#CC[C@H](NC(=O)c1ccc(NC(=O)c2ccc(C#N)cc2)cc1)C(=O)Nc1ccc(C(=O)Nc2ccc3c(=O)n(-c4ccc(C(=O)O)cc4)c(C)nc3c2OC(C)C)cc1 [Cmpd. 45a] ... > 64 µg/mL
